Can you tell me half-life for the items I'm about to list?
test: Dog pharmacokinetics, oral gavage (Experiment 3); type: in vivo; conditions: Beagle dogs, oral gavage 2.5 mg/kg, plasma
Your answer is read as h, so omit the unit and give the number.

Report half-life for Cn1c(=O)n(C2CCC(=O)NC2=O)c2cccc(C#CCCN3CCC4(CC3)CC(n3cc(NC(=O)c5cnn6ccc(N7C[C@H]8C[C@@H]7CO8)nc56)c(C(F)F)n3)C4)c21 (some centres unmarked) please.
7.6

Now try Cn1c(=O)n(C2CCC(=O)NC2=O)c2cccc(C#CCO[C@H]3CC[C@H](CN4CCC5(CC4)CC(n4cc(NC(=O)c6cnn7ccc(N8C[C@H]9C[C@@H]8CO9)nc67)c(C(F)F)n4)C5)CC3)c21 (some centres unmarked) .
8

Now try Cn1c(=O)n(C2CCC(=O)NC2=O)c2cccc(C#CCOC3CCN(C(=O)N4CCC5(CC4)CC(n4cc(NC(=O)c6cnn7ccc(N8C[C@H]9C[C@@H]8CO9)nc67)c(C(F)F)n4)C5)CC3)c21 (some centres unmarked) .
2.1

Now try Cn1c(=O)n(C2CCC(=O)NC2=O)c2cccc(C#CCOC34CCC(CN5CCC6(CC5)CC(n5cc(NC(=O)c7cnn8ccc(N9C[C@H]%10C[C@@H]9CO%10)nc78)c(C(F)F)n5)C6)(CC3)CC4)c21 (some centres unmarked) .
13.4

Now try Cn1c(=O)n(C2CCC(=O)NC2=O)c2cccc(C#CCOC3CCN(C[C@H]4CC[C@H](n5cc(NC(=O)c6cnn7ccc(N8C[C@H]9C[C@@H]8CO9)nc67)c(C(F)F)n5)CC4)CC3)c21 (some centres unmarked) [KT-474, reference compound] .
6.7

----------
biological target: IRAK4 (Homo sapiens); test: Degradation of IRAK4 in SU-DHL-2 cells (flow cytometry); format: cell-based; set-up: The degradation level of IRAK4 protein in SU-DHL-2 cell line by the compounds was detected by flow cytometry; endogenous in cells; host or cells: SU-DHL-2; OCI-LY3; details: read-out: SU-DHL-2 DC50; SU-DHL-2 cells, 24 hours incubation
Sequence (Q9NWZ3 whole entry): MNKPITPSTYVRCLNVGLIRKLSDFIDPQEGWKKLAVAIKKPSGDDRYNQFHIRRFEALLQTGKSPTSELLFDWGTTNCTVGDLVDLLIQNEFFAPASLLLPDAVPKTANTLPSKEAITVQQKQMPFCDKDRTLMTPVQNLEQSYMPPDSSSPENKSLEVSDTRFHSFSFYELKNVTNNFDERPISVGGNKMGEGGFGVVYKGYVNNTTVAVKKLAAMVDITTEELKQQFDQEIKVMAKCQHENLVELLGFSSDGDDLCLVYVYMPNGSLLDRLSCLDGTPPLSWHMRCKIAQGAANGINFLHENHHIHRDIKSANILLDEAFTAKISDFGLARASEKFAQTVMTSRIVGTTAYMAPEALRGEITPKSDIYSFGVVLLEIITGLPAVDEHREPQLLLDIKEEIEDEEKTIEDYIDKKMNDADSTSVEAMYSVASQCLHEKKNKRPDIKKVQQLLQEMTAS
Can you tell me DC50 for the items I'm about to list?
Your answer is read as nM, so omit the unit and give the number.

Report DC50 for Cn1c(=O)n(C2CCC(=O)NC2=O)c2cccc(C#CCOCCC(=O)N3CCC4(CC3)CC(n3cc(NC(=O)c5cnn6ccc(N7C[C@H]8C[C@@H]7CO8)nc56)c(C(F)F)n3)C4)c21 (stereo partly shown) [Example 8] please.
4

Now try Cn1c(=O)n(C2CCC(=O)NC2=O)c2cccc(C#CCOCC(=O)N3CCC4(CC3)CC(n3cc(NC(=O)c5cnn6ccc(N7C[C@H]8C[C@@H]7CO8)nc56)c(C(F)F)n3)C4)c21 (stereo partly shown) [Example 12] .
5

Now try Cn1c(=O)n(C2CCC(=O)NC2=O)c2cccc(C#CCOCC(C)(C)C(=O)N3CCC4(CC3)CC(n3cc(NC(=O)c5cnn6ccc(N7C[C@H]8C[C@@H]7CO8)nc56)c(C(F)F)n3)C4)c21 (stereo partly shown) [Example 5] .
27

Now try Cn1c(=O)n(C2CCC(=O)NC2=O)c2cccc(C#CCO[C@H]3C[C@@H](CN4CCC5(CC4)CC(n4cc(NC(=O)c6cnn7ccc(N8C[C@H]9C[C@@H]8CO9)nc67)c(C(F)F)n4)C5)C3)c21 (stereo partly shown) [Example 30] .
3

Now try Cn1c(=O)n(C2CCC(=O)NC2=O)c2cccc(C#CCOC(C)(C)C(=O)N3CCC4(CC3)CC(n3cc(NC(=O)c5cnn6ccc(N7C[C@H]8C[C@@H]7CO8)nc56)c(C(F)F)n3)C4)c21 (stereo partly shown) [Example 10] .
17

Now try Cn1c(=O)n(C2CCC(=O)NC2=O)c2cccc(C#CCOCC3(C(=O)N4CCC5(CC4)CC(n4cc(NC(=O)c6cnn7ccc(N8C[C@H]9C[C@@H]8CO9)nc67)c(C(F)F)n4)C5)CC3)c21 (stereo partly shown) [Example 7] .
12

Now try Cn1c(=O)n(C2CCC(=O)NC2=O)c2cccc(C#CCO[C@H]3C[C@H](CN4CCC5(CC4)CC(n4cc(NC(=O)c6cnn7ccc(N8C[C@H]9C[C@@H]8CO9)nc67)c(C(F)F)n4)C5)C3)c21 (stereo partly shown) [Example 29] .
3
